# system-name: 14C-Fc fragment of HIgG (human)
# measurement-protocol: secondary screening, batch, Fc fragment competitive (spiked in MEM)
No end group written: not given here.
Reported values of Bound % for individual entries
Report as a plain number; the unit % is understood.

Some solved cases for reference:
[
  {
    "binder": "HEILYWA-{Toyopearl AF‑Amino‑650 resin}",
    "readout-unit": "%",
    "Bound %": 3.2
  },
  {
    "binder": "HFDKGFA-{Toyopearl AF‑Amino‑650 resin}",
    "readout-unit": "%",
    "Bound %": 4.28
  },
  {
    "binder": "WHWRKRA-{Toyopearl AF‑Amino‑650 resin}",
    "readout-unit": "%",
    "Bound %": 16.5
  },
  {
    "binder": "HANGFLA-{Toyopearl AF‑Amino‑650 resin}",
    "readout-unit": "%",
    "Bound %": 25.6
  },
  {
    "binder": "YYWLHHA-{Toyopearl AF‑Amino‑650 resin}",
    "readout-unit": "%",
    "Bound %": 8.85
  },
  {
    "binder": "HYGLGWA-{Toyopearl AF‑Amino‑650 resin}",
    "readout-unit": "%",
    "Bound %": 4.91
  }
]

Moving on to the next binder.
# Bound % of HWRGWVA-{Toyopearl AF‑Amino‑650 resin} = 8.13
